Data credit: patent US8334295B2

Reported melting point is given for each of the following compounds.

Solved entries (count: 5):
COMPOUND	melting point
Cc1cc(C#N)cc(C(=O)c2c(C(C)C)c(=O)[nH]c(=O)n2CC(C)C)c1 [Compound 78]	200 to 201 °C
C=CCCn1c(C(=O)c2cc(C)cc(C#N)c2)c(C(C)C)c(=O)[nH]c1=O [Compound 79]	133 to 134 °C
CCn1c(C(C#N)c2cc(C)cc(C#N)c2)c(C(C)C)c(=O)[nH]c1=O (stereo not drawn) [Compound 85]	260 to 261 °C
CCCn1c(C(=O)c2cc(C)cc(C#N)c2)c(C(C)C)c(=O)[nH]c1=O [Compound 46]	202 to 203 °C
CCOCn1c(C(=O)c2cc(Cl)cc(C#N)c2)c(C(C)C)c(=O)[nH]c1=O [Compound 38]	162 to 164 °C

Entry Cc1cc(C#N)cc(C(=O)c2c(C(C)C)c(=O)[nH]c(=O)n2CC2(CC(N)=O)CC2)c1 [Compound 85] , melting point reported as 283 to 285 °C

Entry CCn1c(C(=O)c2cc(C)cc(C=CC#N)c2)c(C(C)C)c(=O)[nH]c1=O [Compound 73] , melting point reported as 174 to 176 °C

Entry Cc1cc(C#N)cc(C(=O)c2c(C(C)C)c(=O)[nH]c(=O)n2CCCO)c1 [Compound 25] , melting point reported as 166 to 167 °C

Entry CCCCn1c(C(=O)c2cc(C)cc(C#N)c2)c(CC)c(=O)[nH]c1=O [Compound 70] , melting point reported as 190 to 191 °C

Entry Cc1cc(C=CC#N)cc(C(=O)c2c(C(C)C)c(=O)[nH]c(=O)n2CC2CC2)c1 [Compound 72] , melting point reported as 225 to 226 °C

Entry CCCCn1c(C(=O)c2cc(C)cc(C=CC#N)c2)c(C(C)C)c(=O)[nH]c1=O [Compound 74] , melting point reported as 164 to 165 °C

---

Reported melting point is given for each of the following compounds.

Solved entries (count: 3):
COMPOUND_STRUCTURE_STRING	RESULT_VALUE
Cc1cc(C#N)cc(C(=O)c2c(C(C)C)c(=O)[nH]c(=O)n2C(C)C)c1	278 to 280 °C
CC=CCn1c(C(=O)c2cc(C)cc(C#N)c2)c(C(C)C)c(=O)[nH]c1=O	177 to 178 °C
CCn1c(C(=O)c2cc(C)cc(CCC#N)c2)c(C(C)C)c(=O)[nH]c1=O	173 to 174 °C

Entry `CCCCn1c(C(=O)c2cc(C)cc(CCC#N)c2)c(C(C)C)c(=O)[nH]c1=O` , melting point reported as 172 to 173 °C
